assay_system: T1, Ala mutant of TA0096, SEQ ID NO: 32
T1 peptide: EENMDAQWMQDEMEIGY
protocol_text: ELISA, coated peptide
assay_readout: OD 490/630 nm
API doc: respond with a numeric literal and nothing else, no unit.

Query OD 490/630 nm for G9 (antibody, V domains shown, Chicken variable regions in a mouse chimeric antibody (IgG1); also called anti-PAD4 antibody G9) VH: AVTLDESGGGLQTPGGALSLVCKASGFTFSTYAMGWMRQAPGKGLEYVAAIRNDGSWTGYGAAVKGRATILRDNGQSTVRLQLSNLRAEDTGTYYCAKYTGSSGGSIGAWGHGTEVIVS VL: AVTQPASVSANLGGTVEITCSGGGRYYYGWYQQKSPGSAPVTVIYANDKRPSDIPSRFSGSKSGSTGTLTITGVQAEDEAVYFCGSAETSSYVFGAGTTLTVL
0.039

Data provenance is patent US20180044434A1.
